Listing of entries alongside the reported melting point.
quantity: melting point

>>> result("CC(C)n1c(-c2ccc(S(=O)(=O)NC(CF)CF)cn2)c(C#N)c2ccc(OC(F)F)cc21 [compound 36]")
"142 to 145 °C"
>>> result("CC(C)(NS(=O)(=O)c1ccc(-c2c(C(N)=O)c3cc(F)c(OC(F)F)cc3n2C2CCCC2)nc1)C(F)(F)F [compound 863]")
"215 to 217 °C"
>>> result("CCc1cc2c(cc1F)c(C#N)c(-c1ccc(S(=O)(=O)NC(C)(C)C)cn1)n2-c1ccccn1 [compound 882]")
"200 to 205 °C"
>>> result("CCc1cc2c(cc1F)c(C#N)c(-c1ccc(S(=O)(=O)N[C@@H](C)C(F)(F)F)cn1)n2-c1cccc(Cl)c1 [compound 1018]")
"195 to 198 °C"
>>> result("Cc1c(F)cc2c(C#N)c(-c3ccc(S(=O)(=O)N[C@@H](C)C(F)(F)F)cn3)n(C3CCCC3)c2c1F [compound 508]")
"215 to 219 °C"
>>> result("Cc1cc2c(cc1F)c(C(N)=O)c(-c1ccc(S(=O)(=O)NC(C)(C)C(F)(F)F)cn1)n2C1CCCCC1 [compound 714]")
"245 to 250 °C"
>>> result("CCS(=O)(=O)Nc1ccc(-c2c(C#N)c3ccc(OC(C)C)cc3n2C2CCC2)nn1 [compound 276]")
"181 to 183 °C"
>>> result("CCc1cc2c(cc1F)c(C(=O)O)c(-c1ccc(NS(=O)(=O)C(C)(C)C)nc1)n2[C@H](C)C1CC1 [compound 1103]")
"165 °C (dec.)"
>>> result("N#Cc1c(-c2ncc(S(=O)(=O)NC(CF)CF)cn2)n(C2CCC2)c2cc(OC(F)(F)F)ccc12 [compound 177]")
"202 to 204 °C"
>>> result("Cc1cc2c(cc1F)c(C(=O)O)c(-c1ccc(S(=O)(=O)NC(C)(C)C(F)(F)F)cn1)n2C1CCCC1 [compound 765]")
"233 to 234 °C"
>>> result("Cc1cc2c(cc1F)c(C#N)c(-c1ccc(S(=O)(=O)N[C@@H](C)C(F)(F)F)cn1)n2-c1ncccc1C [compound 739]")
"219 to 221 °C"
>>> result("Cc1cc2c(cc1F)c(C#N)c(-c1ccc(S(=O)(=O)N[C@@H](C)C(F)(F)F)cn1)n2-c1occc1C#N [compound 1072]")
"238 to 243.6 °C"
>>> result("Cc1ccc2c(C#N)c(-c3ccc(S(=O)(=O)N[C@H](C)C(F)(F)F)cn3)n(C(C)C)c2c1 [compound 210]")
"211 to 216 °C"
>>> result("N#Cc1c(-c2ccc(S(=O)(=O)Nc3ccccc3)cn2)n(C2CCC2)c2cc(OC(F)F)c(F)cc12 [compound 791]")
"178 to 179 °C"
